- protocolText: Partition coefficient (logP)
- Type: physicochemical
- testSettings: octanol/water
metric: logP

compound	endpointValue
CC(C)C(C/C=C1\CC([C@H](CO)OC(=O)CC(C(C)C)C(C)C)OC1=O)C(C)C (stereo partly drawn)	5.86
CCCCCCCCC(=O)O[C@@H](CO)C1C/C(=C\CC(C(C)C)C(C)C)C(=O)O1 (stereo partly drawn)	6.08
CCCCCCCC/C=C1\CC([C@H](CO)OC(=O)CCCCCCCC)OC1=O (stereo partly drawn)	6.3

----------
The following compounds are shown together with reported pKi values.
- systemName: Protein kinase C alpha type (Homo sapiens)
- protocolText: Affinity for protein kinase-C alpha (PK-C alpha)
pKi: −log10 of the molar value.
metric: pKi

compound	endpointValue
CCCCCCCC/C=C1/CC([C@H](CO)OC(=O)CC(C(C)C)C(C)C)OC1=O (stereo partly drawn)	6.25
CCCCCCCC/C=C1\CC([C@H](CO)OC(=O)CCCCCCCC)OC1=O (stereo partly drawn)	5.92
CCCCCCCCC(=O)O[C@@H](CO)C1C/C(=C\CC(C(C)C)C(C)C)C(=O)O1 (stereo partly drawn)	5.96
CCCCCCCCCCCCCC(=O)O[C@@H](CO)C1CCC(=O)O1 (stereo partly drawn)	6.00
CCCCCCCCC(=O)O[C@@H](CO)C1C/C(=C/CC(C(C)C)C(C)C)C(=O)O1 (stereo partly drawn)	6.30
CC(C)C(C/C=C1/CC([C@H](CO)OC(=O)CC(C(C)C)C(C)C)OC1=O)C(C)C (stereo partly drawn)	6.49
CC(C)C(C/C=C1\CC([C@H](CO)OC(=O)CC(C(C)C)C(C)C)OC1=O)C(C)C (stereo partly drawn)	6.17
CCCCCCCC/C=C1/CC([C@H](CO)OC(=O)CCCCCCCC)OC1=O (stereo partly drawn)	5.75
